The measurements presented in this section are drawn from PubChem BioAssay (NCATS).

assayedSystem: Rap guanine nucleotide exchange factor 3 (Homo sapiens)
test: Confirmatory qHTS for agonist of cAMP-regulated guanine nucleotide exchange factor 3 (EPAC1) (AID 1645881); note: nearly all actives have a fitted effect of over 75% in size;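 for activation: EPAC1 catalysed release of BODIPY-GDP from Rap1B seen as fluorescence loss; 100% = effect of cAMP agonist control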
studyConditions: EPAC1 Rap1B BODIPY-GDP exchange fluorescence; series mostly up to 154 µM
Records with an inconclusive call do not appear. Active and inactive are the calls of the source. Calls come from the whole dose curve; as a rule, active = well fitted activation curve with a large enough effect; inconclusive = small, poorly fitted or top-dose-only effect; inactive = no such curve, though single readings can be large or run the other way.
A correct response names exactly one class from 1 (active), 0 (inactive)

Query: What call does the record list for COc1ccc(N/C=C2\CCc3ccccc3C2=O)cc1 ?
Response: 1

Query: Given O=C1[C@H](Cc2ccccc2)NCCCC[C@H](c2ccco2)N1Cc1ccccc1 , state the outcome it received in this test.
Response: 0

Query: What did this assay record as the result for COC(=O)C1=CN(Cc2ccc(OC)c(OC)c2)C=C(C(=O)OC)C1c1cccc(F)c1 ?
Response: 0

Query: Which result was noted for this molecule in the test: COCOCCn1cc(CN2CCS(=O)(=O)N(Cc3ccc(-c4ccc(Cl)cc4)cc3)C(CC(C)C)C2=O)nn1 (stereo not drawn)
Response: 0

Query: GET /call?item= C#C[C@]1(OC(C)=O)CCC2C3CCC4=CC(=O)CC[C@@H]4C3CC[C@@]21C (stereo partly drawn) returns the recorded outcome of this test.
Response: 0

Query: Recorded call for O=C(CSc1nnc(SCc2ccccc2)s1)N/N=C/C=C\c1ccco1 ?
Response: 0

Query: How was Cc1ccc(Cl)c2c1N[C@@H](c1ccc(C(=O)O)cc1)[C@H]1CC=C[C@@H]21 classified in this test?
Response: 0

Query: Returns: the outcome recorded for COC(=O)c1ccc2nc(C3CCCCC3)c(Cc3cccc(F)c3)n2c1 in this assay.
Response: 0

Query: Which outcome did this test record for the molecule Cc1ccc(Cn2c(Cc3ccccc3)nc3ccccc32)cc1 ?
Response: 0

Query: Any idea what this test logged for C[C@H](c1ccccc1)N1C[C@@H](COCc2ccccc2)Oc2cc(N3CC[C@@H](O)C3)ccc2S1(=O)=O ?
Response: 0

Query: Name the outcome recorded for COc1cc(C=NNc2ccc(S(=O)(=O)Nc3ccccc3C(=O)O)cc2[N+](=O)[O-])ccc1O in the assay.
Response: 0

Query: Hi, sorry to bother you, what did the test record for CCOC(=O)Cc1nnc(NC(=O)CSc2nnc3c(n2)[nH]c2ccccc23)s1 ?
Response: 0

Query: Each molecule tested received a call. Report the one for CCOC(=O)N1CCN(S(=O)(=O)c2cc(-c3nn4c(C)nnc4c4ccccc34)ccc2C)CC1 .
Response: 0

Query: // outcome(item) with item = COc1ccc(N2CCN(C(=O)CCc3ccccc3OC)CC2)cc1
Response: 0

Query: Could you check what this test reported for COc1ccc2nc(N3CCN(C(=O)C4CC4)CC3)sc2c1 ?
Response: 0

Query: Which outcome did this test record for the molecule CN1CCN(C(CNC(=O)c2ccc(Br)o2)c2ccc(F)cc2)CC1 (stereo not drawn) ?
Response: 0

Query: Test call, this molecule: CC(=O)NCCn1c(C)cc2ccccc21
Response: 0

Query: State the result this test recorded for Cc1ccc2nc(NC(=O)CSc3ncnc4c3oc3ccccc34)sc2c1 .
Response: 0

Query: # outcome recorded in this test, key = O=C1CC(c2ccccc2)=C(c2ccccc2)C1
Response: 0

Query: Recorded test call requested for CC(C)OC(=O)c1c(-c2ccccc2)c(-c2ccccc2)nn(C)c1=O
Response: 0

Query: Which outcome did this test record for the molecule Cc1ccccc1OCc1nc2ccccc2n1Cc1ccccc1Cl ?
Response: 0

Query: Please share the test call associated with COc1ccccc1-c1ccc(Nc2cccc(C(F)(F)F)c2)nn1 .
Response: 0

Query: Write down the call the test reported for this molecule. Item: COc1ccc(OC)c(/C=C2\SC(=S)N(NS(=O)(=O)c3ccc(C)cc3)C2=O)c1
Response: 0

Query: Status in this test for Cc1ccccc1S(=O)(=O)N1C(c2ccc(Cl)c(Cl)c2)CC=C(C(=O)O)C1c1cccc(Br)c1 (stereo not drawn) ?
Response: 0

Query: Entry Cc1cccc(NC(=O)Cn2c(O)c(N=NC(=O)c3ccncc3)c3ccccc32)c1 : call = ?
Response: 0

Query: Hi, sorry to bother you, what did the test record for CCCOc1ccccc1Cn1c(=O)oc2ccccc21 ?
Response: 0

Query: Assay outcome for COc1ccc(C(=O)COC(=O)CCN2C(=O)C3CC=CCC3C2=O)c(OC)c1 (stereo not drawn) : what was it?
Response: 0

Query: Please share the test call associated with Cc1c(Cl)ccc2c(C(=O)O)cc(-c3ccccc3)nc12 .
Response: 0

Query: Dear colleague, could you share the recorded outcome for OC1CCN(c2c3c(nc4cc(-c5cccc(F)c5)nn24)CCCC3)CC1 when you have a moment?
Response: 0

Query: Which outcome did this test record for the molecule COc1cc(/C=C(\C#N)C(=O)NC(C)C)cc(Cl)c1O ?
Response: 0

Query: # outcome recorded in this test, key = CCO/C(C)=N/Oc1cc(OC)cc(OC)c1
Response: 0

Query: What did the test return for CCOC(=O)c1ccccc1-c1csc(NS(=O)(=O)c2ccc(Cl)cc2)n1 ?
Response: 0

Query: Could you kindly confirm the outcome this assay logged for CCC(C)NC(=O)Cn1c(=O)n(CCCCCC(=O)Nc2ccccc2)c(=O)c2sccc21 (stereo not drawn) ?
Response: 0

Query: Lab log entry: CC(C)OC(=O)NC(c1ccccc1)C(Cl)(Cl)Cl (stereo not drawn) — outcome as called in the assay?
Response: 0

Query: What did the test return for Clc1ccc2nc(C3CCCCC3)c(CC3CCCCC3)n2c1 ?
Response: 0

Query: For this molecule, state the assay outcome: O=C(c1ccco1)N(Cc1cccc([N+](=O)[O-])c1)c1ccc(Br)cc1
Response: 0

Query: Recorded call for CCOC(=O)C1CCCCN1Cc1cn(C)nc1-c1ccccc1F (stereo not drawn) ?
Response: 0

Query: Please state the recorded outcome for this molecule: Fc1cc(F)c(F)c(SCn2cc(Br)cn2)c1F
Response: 0

Query: Please let me know the test result on file for Cc1ccc(C(=O)c2coc3ccc(O)c(Cl)c23)cc1 .
Response: 0

Query: Would you mind telling me which call this test gave CC(OC(=O)CN1C(=O)COc2ccccc21)C(=O)NCc1ccc(F)cc1 (stereo not drawn) ?
Response: 0

Query: Any idea what this test logged for CCc1ccccc1N(CC(=O)NCCc1ccccc1)C(=O)CCC(=O)Nc1ccccn1 ?
Response: 0

Query: What call does the record list for COc1cc(/C=N/NC(=O)c2ccccc2)ccc1O ?
Response: 0

Query: What did the test return for COc1ccc2c(c1)CC/C(=C\Nc1ccc3c(c1)OCO3)C2=O ?
Response: 1
